B1: Azoarcus group I ribozyme (parent)
chain: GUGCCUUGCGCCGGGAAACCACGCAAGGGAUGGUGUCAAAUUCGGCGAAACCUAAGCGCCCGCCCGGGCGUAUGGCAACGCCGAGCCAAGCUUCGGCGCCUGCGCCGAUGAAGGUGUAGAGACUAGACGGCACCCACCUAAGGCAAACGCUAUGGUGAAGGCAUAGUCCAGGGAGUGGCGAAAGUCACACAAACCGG

variants of: B1; experiment: reverse-splicing fitness (ratio to wild type); higher = more active; in vitro selection; Mg2+ level not given
readout-label: reverse-splicing fitness
Kindly provide the number alone.

[
  {
    "mutant": "A111G A120G C150A C169U U176G",
    "readout-label": "reverse-splicing fitness",
    "test-result": 0.00819
  },
  {
    "mutant": "C82G A120G C150G C169G",
    "readout-label": "reverse-splicing fitness",
    "test-result": 0.00959
  },
  {
    "mutant": "C82A A111U A120C A145G C150U C169A",
    "readout-label": "reverse-splicing fitness",
    "test-result": 0.0113
  }
]

IN: // returns reported reverse-splicing fitness for input C82G A111G A145U C169U U176A
OUT: 0.0142

IN: // returns reported reverse-splicing fitness for input C82U A120G A145U C150U U176G
OUT: 0.00369

IN: // returns reported reverse-splicing fitness for input C82A A111G A145U C150A C169G U176A
OUT: 0.0174

IN: // returns reported reverse-splicing fitness for input C82A C150G C169U U176C
OUT: 0.0109

IN: // returns reported reverse-splicing fitness for input A120G A145G C150A C169U U176C
OUT: 0.0707

IN: // returns reported reverse-splicing fitness for input C82A A111G A145C C150U C169A U176A
OUT: 0.0133

IN: // returns reported reverse-splicing fitness for input A111G A145C C150U U176G
OUT: 0.23

IN: // returns reported reverse-splicing fitness for input C82A A111G A120G C150U C169A U176G
OUT: 0.00549

// data source = the RNAGym collection of RNA variant scans (doi:10.1093/molbev/msab373)
